# Assay System: Proto-oncogene tyrosine-protein kinase receptor Ret (Homo sapiens, UniProt P07949, V804M)
# Sequence (P07949 29-1114 V804M limits assumed): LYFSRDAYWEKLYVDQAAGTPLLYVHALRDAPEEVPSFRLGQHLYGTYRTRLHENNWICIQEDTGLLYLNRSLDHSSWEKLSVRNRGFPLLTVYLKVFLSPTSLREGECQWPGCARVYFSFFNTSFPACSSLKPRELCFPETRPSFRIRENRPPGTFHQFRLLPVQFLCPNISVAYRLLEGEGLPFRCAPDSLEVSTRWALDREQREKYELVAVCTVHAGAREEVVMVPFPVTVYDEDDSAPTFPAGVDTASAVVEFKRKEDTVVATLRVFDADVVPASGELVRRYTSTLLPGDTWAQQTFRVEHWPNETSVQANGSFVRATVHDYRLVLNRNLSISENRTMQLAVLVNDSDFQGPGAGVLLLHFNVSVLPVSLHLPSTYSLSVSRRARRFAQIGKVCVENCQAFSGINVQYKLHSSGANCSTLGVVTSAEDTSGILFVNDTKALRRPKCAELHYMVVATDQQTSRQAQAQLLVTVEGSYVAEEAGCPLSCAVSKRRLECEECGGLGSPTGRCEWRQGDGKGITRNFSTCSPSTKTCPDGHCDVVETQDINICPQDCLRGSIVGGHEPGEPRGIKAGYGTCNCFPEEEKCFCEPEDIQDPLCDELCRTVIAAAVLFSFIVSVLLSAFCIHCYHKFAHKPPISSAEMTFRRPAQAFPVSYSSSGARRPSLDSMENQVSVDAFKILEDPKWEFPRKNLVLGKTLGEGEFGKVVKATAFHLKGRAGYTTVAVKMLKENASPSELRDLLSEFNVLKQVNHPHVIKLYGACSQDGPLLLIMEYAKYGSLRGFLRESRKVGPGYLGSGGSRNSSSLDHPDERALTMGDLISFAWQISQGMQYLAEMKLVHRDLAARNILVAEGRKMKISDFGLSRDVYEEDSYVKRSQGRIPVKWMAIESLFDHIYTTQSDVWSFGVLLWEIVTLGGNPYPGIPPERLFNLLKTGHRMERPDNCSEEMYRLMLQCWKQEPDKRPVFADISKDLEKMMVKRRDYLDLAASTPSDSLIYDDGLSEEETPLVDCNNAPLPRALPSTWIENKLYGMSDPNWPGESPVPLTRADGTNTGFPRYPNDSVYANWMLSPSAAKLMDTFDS
# Test Summary: Inhibition of human RET V804M mutant using peptide substrate KKKVSRSGLYRSPS MPENLNRPR in presence of [gamma33P]ATP by radiometric assay
Endpoint Label: IC50 (µM)
Report as a plain number; the unit µM is understood.

Solved cases below.
CC(C)n1nc(-c2cc(C3CC3)on2)c(C(N)=O)c1N 0.252
CC(C)n1nc(-c2cc(-c3cccs3)on2)c(C(N)=O)c1N 1.22

Switching to the query record.
Ask: Which value of IC50 has been reported for CC(C)n1nc(-c2cc(-c3ccsc3)on2)c(C(N)=O)c1N in the records?
Reply: 2.9

====

# Test system: Proto-oncogene tyrosine-protein kinase receptor Ret (Homo sapiens), P07949 [C634W]
# Sequence (P07949 whole entry C634W): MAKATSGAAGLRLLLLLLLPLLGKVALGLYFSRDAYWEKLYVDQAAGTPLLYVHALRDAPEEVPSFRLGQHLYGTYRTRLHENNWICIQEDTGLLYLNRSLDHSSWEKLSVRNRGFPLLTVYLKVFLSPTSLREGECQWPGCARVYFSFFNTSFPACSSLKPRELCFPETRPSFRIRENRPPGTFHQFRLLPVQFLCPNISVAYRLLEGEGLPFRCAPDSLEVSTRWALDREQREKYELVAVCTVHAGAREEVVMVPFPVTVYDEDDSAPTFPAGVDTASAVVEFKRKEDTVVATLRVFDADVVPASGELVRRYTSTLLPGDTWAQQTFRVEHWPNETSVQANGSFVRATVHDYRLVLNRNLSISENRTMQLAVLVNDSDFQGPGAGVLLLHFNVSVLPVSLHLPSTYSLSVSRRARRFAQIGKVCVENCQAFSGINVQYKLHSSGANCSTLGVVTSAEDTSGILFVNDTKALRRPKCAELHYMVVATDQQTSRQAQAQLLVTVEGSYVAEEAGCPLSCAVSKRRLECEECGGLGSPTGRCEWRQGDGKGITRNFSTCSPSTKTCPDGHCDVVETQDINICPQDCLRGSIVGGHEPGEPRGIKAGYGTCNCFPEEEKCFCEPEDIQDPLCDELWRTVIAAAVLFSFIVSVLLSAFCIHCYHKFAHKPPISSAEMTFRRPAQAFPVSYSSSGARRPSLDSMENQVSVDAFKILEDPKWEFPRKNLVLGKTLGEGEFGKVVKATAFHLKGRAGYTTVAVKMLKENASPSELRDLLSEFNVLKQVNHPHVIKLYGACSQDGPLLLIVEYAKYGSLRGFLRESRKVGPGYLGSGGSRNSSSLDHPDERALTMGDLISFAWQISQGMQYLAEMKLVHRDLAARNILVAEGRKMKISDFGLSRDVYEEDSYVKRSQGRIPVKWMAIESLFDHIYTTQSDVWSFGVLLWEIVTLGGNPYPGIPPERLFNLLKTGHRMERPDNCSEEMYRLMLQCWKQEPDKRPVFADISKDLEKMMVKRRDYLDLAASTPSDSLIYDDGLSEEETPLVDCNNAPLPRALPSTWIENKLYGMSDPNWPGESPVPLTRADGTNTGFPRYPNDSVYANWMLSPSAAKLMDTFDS
# GI50 per entry
Report as a plain number; the unit nM is understood.

Compound	Endpoint Label	Result Units	Measurement
COc1cc2nccc(Oc3ccc(NC(=O)C4(C(=O)Nc5ccc(F)cc5)CC4)cc3)c2cc1OC [CABOZANTINIB]	GI50	nM	260

Switching to the query record.
Ask: Which value of GI50 has been reported for CC(C)n1nc(-c2cc(C3CC3)on2)c(C(N)=O)c1N in the records?
Reply: 1660

====

# Assay System: Proto-oncogene tyrosine-protein kinase receptor Ret (Homo sapiens, UniProt P07949)
# Sequence (P07949 whole entry): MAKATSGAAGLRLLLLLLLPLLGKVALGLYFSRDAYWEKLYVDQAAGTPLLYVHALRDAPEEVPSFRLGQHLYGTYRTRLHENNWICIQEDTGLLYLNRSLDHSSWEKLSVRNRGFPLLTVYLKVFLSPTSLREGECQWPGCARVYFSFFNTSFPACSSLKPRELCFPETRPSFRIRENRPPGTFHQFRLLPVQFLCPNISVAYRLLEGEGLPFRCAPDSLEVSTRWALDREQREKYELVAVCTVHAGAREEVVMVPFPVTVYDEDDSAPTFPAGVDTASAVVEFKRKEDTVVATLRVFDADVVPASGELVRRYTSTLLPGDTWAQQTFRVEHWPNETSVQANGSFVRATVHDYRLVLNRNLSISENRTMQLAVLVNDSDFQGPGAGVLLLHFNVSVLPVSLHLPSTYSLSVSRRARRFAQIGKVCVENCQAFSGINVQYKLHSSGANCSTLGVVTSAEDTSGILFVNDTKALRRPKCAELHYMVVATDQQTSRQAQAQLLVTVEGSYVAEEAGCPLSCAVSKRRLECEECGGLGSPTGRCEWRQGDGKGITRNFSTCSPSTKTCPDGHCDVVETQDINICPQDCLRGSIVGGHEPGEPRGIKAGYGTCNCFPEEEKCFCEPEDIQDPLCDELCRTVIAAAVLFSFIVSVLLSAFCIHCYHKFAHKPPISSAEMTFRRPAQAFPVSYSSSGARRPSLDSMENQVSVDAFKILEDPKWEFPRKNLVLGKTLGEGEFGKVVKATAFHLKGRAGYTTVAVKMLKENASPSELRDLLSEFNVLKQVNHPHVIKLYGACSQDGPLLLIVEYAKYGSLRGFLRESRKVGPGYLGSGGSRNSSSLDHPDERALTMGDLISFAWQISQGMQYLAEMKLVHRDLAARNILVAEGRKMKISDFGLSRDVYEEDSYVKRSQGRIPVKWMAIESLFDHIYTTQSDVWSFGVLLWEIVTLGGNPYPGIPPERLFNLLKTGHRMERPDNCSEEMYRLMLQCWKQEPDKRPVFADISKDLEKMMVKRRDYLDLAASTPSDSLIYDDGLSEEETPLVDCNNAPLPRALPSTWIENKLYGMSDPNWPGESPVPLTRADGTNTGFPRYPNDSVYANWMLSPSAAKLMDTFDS
# GI50 per entry

Solved cases below.
Molecule	GI50
COc1cc2nccc(Oc3ccc(NC(=O)C4(C(=O)Nc5ccc(F)cc5)CC4)cc3)c2cc1OC [CABOZANTINIB]	70 nM
CC(C)n1nc(-c2cc(C3CC3)on2)c(C(N)=O)c1N	870 nM
CC(C)n1nc(-c2cc(-c3cccs3)on2)c(C(N)=O)c1N	> 10000 nM

Switching to the query record.
Ask: Return GI50 measured with Proto-oncogene tyrosine-protein kinase receptor Ret (Homo sapiens, UniProt P07949) given this molecule: CC(C)n1nc(-c2cc(-c3ccsc3)on2)c(C(N)=O)c1N
Reply: > 10000 nM

====

# Test Summary: Stability in human liver microsomes assessed as compound remaining at 1 uM after 30 mins
# Type: ADME, microsome
# Experimental Parameters: read-out: Stability
Endpoint Label: remaining at 0.5 h, 1 µM (%)
Report as a plain number; the unit % is understood.

CC(C)c1cc(-c2nn(C(C)C)c3ncnc(N)c23)no1 4.6

Switching to the query record.
Ask: Which value of remaining at 0.5 h, 1 µM has been reported for CC(C)n1nc(-c2cc(C3CC3)on2)c(C(N)=O)c1N in the records?
Reply: 45.1

====

Here's a batch of molecules along with measured GI50 for Proto-oncogene tyrosine-protein kinase receptor Ret (Homo sapiens), P07949 [V804M].
Report as a plain number; the unit µM is understood.

Molecule	Assay System	Endpoint Label	Result Units	Measurement
COc1cc2nccc(Oc3ccc(NC(=O)C4(C(=O)Nc5ccc(F)cc5)CC4)cc3)c2cc1OC [CABOZANTINIB]	Proto-oncogene tyrosine-protein kinase receptor Ret (Homo sapiens), P07949 [V804M]	GI50	µM	0.74

Switching to the query record.
Ask: Return GI50 measured with Proto-oncogene tyrosine-protein kinase receptor Ret (Homo sapiens), P07949 [V804M] given this molecule: CC(C)n1nc(-c2cc(C3CC3)on2)c(C(N)=O)c1N
Sequence (P07949 whole entry V804M): as the sequence (P07949 whole entry C634W) above, with W634C, V804M counted along it
Reply: 6.98

====

# Test Summary: Cytotoxicity against human Nthy-ori 3-1 cells assessed as reduction in cell viability by CellTiter-Glo luminescence assay
# Type: cell-based
Endpoint Label: GI50

Solved cases below.
Compound	GI50
CC(C)n1nc(-c2cc(-c3cccs3)on2)c(C(N)=O)c1N	> 10 µM
COc1cc2nccc(Oc3ccc(NC(=O)C4(C(=O)Nc5ccc(F)cc5)CC4)cc3)c2cc1OC [CABOZANTINIB]	2.92 µM
CC(C)n1nc(-c2cc(-c3ccsc3)on2)c(C(N)=O)c1N	> 10 µM

Switching to the query record.
Ask: Which value of GI50 has been reported for CC(C)n1nc(-c2cc(C3CC3)on2)c(C(N)=O)c1N in the records?
Reply: > 10 µM

====

# Test Summary: Stability in human liver microsomes assessed as compound remaining at 1 uM after 15 mins
# Format: ADME, microsome
# Experimental Parameters: read-out: Stability
Endpoint Label: remaining at 0.25 h, 1 µM (%)
Report as a plain number; the unit % is understood.

CC(C)c1cc(-c2nn(C(C)C)c3ncnc(N)c23)no1 29

Switching to the query record.
Ask: Which value of remaining at 0.25 h, 1 µM has been reported for CC(C)n1nc(-c2cc(C3CC3)on2)c(C(N)=O)c1N in the records?
Reply: 73

====

# remaining at 0.25 h, 1 µM per entry
# Test Summary: Stability in mouse liver microsomes assessed as compound remaining at 1 uM after 15 mins
# Assay type: ADME, microsome
# Experimental Parameters: read-out: Stability
Report as a plain number; the unit % is understood.

CC(C)n1nc(-c2cc(C(C)(C)C)on2)c(C(N)=O)c1N 78
CC(C)c1cc(-c2nn(C(C)C)c(N)c2C(N)=O)no1 51.6
CC(C)n1nc(-c2coc(C3CC3)n2)c2c(N)ncnc21 2.8
CC(C)c1cc(-c2nn(C(C)C)c3ncnc(N)c23)no1 5.1
Cc1ccc(-c2cc(-c3nn(C(C)C)c(N)c3C(N)=O)no2)cc1 61.8

Ask: Which value of remaining at 0.25 h, 1 µM has been reported for CC(C)n1nc(-c2ccon2)c2c(N)ncnc21 in the records?
Reply: 2.6

Ask: Which value of remaining at 0.25 h, 1 µM has been reported for CCc1cc(-c2nn(C(C)C)c(N)c2C(N)=O)no1 in the records?
Reply: 15.1

Ask: Which value of remaining at 0.25 h, 1 µM has been reported for Nc1ncnc2[nH]nc(-c3cc(C4CC4)on3)c12 in the records?
Reply: 1.4

Ask: Which value of remaining at 0.25 h, 1 µM has been reported for CC(C)n1nc(-c2cc(-c3ccccn3)on2)c(C(N)=O)c1N in the records?
Reply: 49

Ask: Which value of remaining at 0.25 h, 1 µM has been reported for CC(C)n1nc(-c2cc(-c3ccc(F)cc3)on2)c(C(N)=O)c1N in the records?
Reply: 85.2

Ask: Which value of remaining at 0.25 h, 1 µM has been reported for CC(C)n1nc(-c2cc(-c3cccs3)on2)c(C(N)=O)c1N in the records?
Reply: 32.1

Ask: Which value of remaining at 0.25 h, 1 µM has been reported for CC(C)n1nc(-c2cc(Cc3ccccc3)on2)c(C(N)=O)c1N in the records?
Reply: 54.6

Ask: Which value of remaining at 0.25 h, 1 µM has been reported for CC(C)n1nc(-c2cc(-c3ccsc3)on2)c(C(N)=O)c1N in the records?
Reply: 11.8

Ask: Which value of remaining at 0.25 h, 1 µM has been reported for CC(C)n1nc(-c2cc(-c3ccccc3)on2)c(C(N)=O)c1N in the records?
Reply: 60.8

Ask: Which value of remaining at 0.25 h, 1 µM has been reported for CC(C)n1nc(-c2cc(C3CC3)on2)c(C(N)=O)c1N in the records?
Reply: 62.5

Ask: Which value of remaining at 0.25 h, 1 µM has been reported for CC(C)n1nc(-c2cc(C3CCCCC3)on2)c(C(N)=O)c1N in the records?
Reply: 40.6

Ask: Which value of remaining at 0.25 h, 1 µM has been reported for CC(C)n1nc(-c2cc(-c3cccnc3)on2)c(C(N)=O)c1N in the records?
Reply: 86.7

====

# Test Summary: Stability in rat liver microsomes assessed as compound remaining at 1 uM after 15 mins
# Format: ADME, microsome
# Experimental Parameters: read-out: Stability
Endpoint Label: remaining at 0.25 h, 1 µM (%)
Report as a plain number; the unit % is understood.

CC(C)c1cc(-c2nn(C(C)C)c3ncnc(N)c23)no1 3.8

Ask: Which value of remaining at 0.25 h, 1 µM has been reported for CC(C)n1nc(-c2cc(C3CC3)on2)c(C(N)=O)c1N in the records?
Reply: 70

Value source: ChEMBL document CHEMBL4000172
